test: Stability after storing different crystalline forms of Tigecycline at 80° C. for 7 days (4-Epi-Tigecycline and total impurities)
Format: physicochemical
setup conditions: ambient conditions, before storage; depends on purity of the starting material; listed as V
readout label: Total impurities ambient conditions

For reference, reported Total impurities ambient conditions for CN(C)c1cc(NC(=O)CNC(C)(C)C)c(O)c2c1C[C@H]1C[C@H]3[C@H](N(C)C)C(O)=C(C(N)=O)C(=O)[C@@]3(O)C(O)=C1C2=O [Form V, Tigecycline] stands at 0.22%

----------
test: Stability after storing different crystalline forms of Tigecycline at 80° C. for 7 days (4-Epi-Tigecycline and total impurities)
Type: physicochemical
setup conditions: ambient conditions, before storage; depends on purity of the starting material; listed as IV
readout label: 4-Epi-Tigecycline ambient conditions

For reference, reported 4-Epi-Tigecycline ambient conditions for CN(C)c1cc(NC(=O)CNC(C)(C)C)c(O)c2c1C[C@H]1C[C@H]3[C@H](N(C)C)C(O)=C(C(N)=O)C(=O)[C@@]3(O)C(O)=C1C2=O [Form IV, Tigecycline] stands at 0.23%
